# System: MAK;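 note: KINOMEscan kinase panel screen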
# STUDY_CONDITIONS: concentration: 1 μM, replicates: in singlicate; n = 1
This section presents molecules with their documented %Inh values.
READOUT_NAME: %Inh (%)

CN(c1ccc(F)c(NC(=O)c2cccc(OC(C)(C)C#N)c2Cl)c1)c1ccc2nc(NC(=O)C3CC3)sc2n1; 0
Cl.N#CCc1ccc(Nc2nccc(Nc3ccc(Oc4ccccc4)cc3)n2)cc1; 20
O=C(Nc1n[nH]c2nc(-c3ccccc3)ccc12)C1CC1; 38
Nc1ncc(-c2ccc3nccc(-c4ccncc4)c3c2)cc1S(=O)(=O)N1CCCCC1; 16
CCNc1nccc(-c2c(-c3ccc(F)cc3)ncn2C2CCN(C)CC2)n1; 0
CCOc1nccc(-c2c(-c3ccc(F)cc3)ncn2C2CCNCC2)n1; 1
O=C(O)C(F)(F)F.O=c1[nH]ccc2nc(N[C@@H]3CCNC3)nc(Nc3ccc4c(c3)S(=O)(=O)CC4)c12; 93.5
COc1cc(Nc2nccc(N3CCC(NC(=O)Nc4ccc5c(c4)OCO5)C3)n2)cc(OC)c1OC (stereo not shown); 3
Cc1cc(-c2ccnc(Nc3cccc(C#N)c3)n2)cc(C)c1O; 36
CNc1nccc(-c2ccc3c(N)n[nH]c3c2)n1; 29
COC(=O)Nc1nc2cc(Oc3ccc(NC(=O)Nc4cccc(SC)c4)cc3)ccc2[nH]1.Cl; 14
Nc1cccc(-c2ccc3c(N)n[nH]c3c2)c1; 18
CN(c1ccc(NC(=O)N2CCN(CCCN3CCOCC3)CC2)cc1)c1ccnc(Nc2ccc(CS(C)(=O)=O)cc2)n1.Cl; 0
COc1cccc(C2=C(Nc3cccc(O)c3)C(=O)NC2=O)c1; 25
Cc1ccc(NC(=O)c2ccc(Cl)c(Cl)c2)cc1-c1ccc(C(=O)Nc2ccncc2)cc1; 100
Cc1nn2c(=O)cc(N3CCO[C@H](C)C3)nc2n1Cc1cccc(Cl)c1Cl; 15
Cc1ccc(C)c(NC(=O)Nc2ccc(C)c(-c3ccc(C(=O)Nc4ccncc4)cc3)c2)c1; 65
CN(C)CCOc1ccc(-c2cc(-c3ccc(Cl)c(O)c3)c(-c3ccncc3)[nH]2)cc1.Cl.Cl; 41
Fc1cc(Cl)ccc1Nc1ccnc2cc(-c3ccc(CN4CCSCC4)o3)ccc12; 32
CC(C)NCC(Cc1ccccc1)NC(=O)c1cc(Br)c(-c2ccnc3[nH]ccc23)s1.Cl.Cl (stereo not shown); 34
CN(c1ccc2c(c1)nc(NCc1ccccc1)n2C)c1ccnc(Nc2ccc(CS(C)(=O)=O)cc2)n1.Cl; 33
COc1cccc2c(-c3ccncc3)c(-c3ccc(F)cc3)nn12; 27
CC(C)(C)c1ccc(C(=O)Nc2cn3cc(-n4ccnc4)ccc3n2)cc1; 18
CC(C)c1nc(-c2cccc(NS(=O)(=O)c3c(F)cccc3F)c2)c(-c2ccnc(Nc3ccc(N4CCOCC4)nc3)n2)s1.Cl; 70
Nc1ncc(-c2cn[nH]c2)c2scc(-c3ccc4c(c3)CCN4C(=O)Cc3ccccc3)c12; 10
Cc1cccc(Nc2nc(NCCN)ncc2C(N)=O)c1; 15
Cc1cc(-c2c(-c3ccc(F)cc3)ncn2CCCN2CCOCC2)nc(N)n1; 35
COc1cccc(NC(=O)NCCNc2ccnc(Nc3ccc(F)cc3)n2)c1; 56
O=C(Nc1n[nH]c2nc(-c3cccc(O)c3)ccc12)C1CC1; 0
NCCC(NC(=O)c1cc(Br)c(-c2ccnc3[nH]ccc23)s1)c1ccccc1.O=C(O)C(F)(F)F.O=C(O)C(F)(F)F (stereo not shown); 30
COc1ccc(C2=C(Nc3cccc(O)c3)C(=O)NC2=O)cc1; 0
COc1cc(Nc2ccnc3cc(-c4ccncc4)ccc23)cc(OC)c1OC.Cl; 20
Cn1cc(-c2ccc3c(c2)CCN3C(=O)Cc2cc(F)cc(C(F)(F)F)c2)c2c(N)ncnc21; 26
CCn1c(-c2nonc2N)nc2c(-c3ccccc3)ncc(OCCCN)c21.O=C(O)C(F)(F)F.O=C(O)C(F)(F)F; 0
